Consider the following sequences; for each one, report its apparent KD of K4 kissing-loop reporter.
test system: K4 kissing-loop RNA reporter; test: apparent KD of K4 kissing-loop reporter; higher = weaker reporter binding; conditions: Eterna round: R107; input ligand: theophylline 20 uM;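 note: bound reporter read as fluorescence of individual clusters on recovered sequencing chips by microscopy, with normalized cluster intensities fitted with a binding model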
Answers are plain numbers, in µM.

UAGCGAUGAAGUGAUACCAGAGAGUGAUGUUCUUUUUUUAUUCAGAAUACUGUCGCCUUGCUCCCUUGGCAGCACGCAGGCGCAG [theeternabot_exclusion_KL_Theo_B_18] :: 0.311
GAUAUAGUGAUGUUAUAUACUGAUAGACAACGAGGACCGGUACGGCCGCCACUCGAGAGGGUGAAAUUAAUGAUAAAAUAAUAAU [ExyTryA#2] :: 0.307
UGCGCUGUGUACUGAAAUGUUAUGCGGGAUACCAGAGUCUUUUUAUUCCCUUGGCAGCUUGAGUGAUGUUUGAUGCCGUUCUUGU [po,,mmullin] :: 0.577
CUGAGCCUGACGCAAGUCAGGCUCUGCGAGCGAGGACCGGUACGGCCGCCACUCGGUGCAGUGAUGUUGCAUGGCCGCAAGGCCG [#2 Exclusion - Tryptophan A Attempt #21 (HarryS)] :: 0.218
CUCAGAAAGACUGUCCAAGUGAUGUUUGGACGAGGACCGGUACGGCCGCCACUCGCUGUUGCGAAUGUUAAGGUACGAGUCGCGG [theeternabot_exclusion_KL_Trp_A_30] :: 0.101
AUGCGCGUGCGAUGUAAAUCGCACGCGCAUCGAGGACCGGUACGGCCGCCACUCGCUCGCGCCGAGUGAUGUUCGGCCGGCGAAC [#2 Same State - Tryptophan A Attempt #5 (HarryS)] :: 0.454
ACCUACGAUCACGAAAGUGAUUGUAGGAUCUAGGAUAUGCUGAAGAGCAGAAGGAGAGUGAUGUUCUCAUCUCACGAAAGUGAGA [whbob_Ex_FMNA__2th190] :: 0.245
AGACUACCACACUGUCAAUAGACAGUGAGCUAGGAUAUGCUGAUAAGCAGAAGGAGUGAUGUUCCAAGGUAGUCAAUAAAAUAAU [FmnAX 13 G29+A66] :: 0.267

// for each sequence below, give its apparent KD of K4 kissing-loop reporter
1. GGAGAGAACUGAAGGAGCGCCAAGAGAGAAGGAAAUAUAGUGAUGUUAUAUAAGAGAGAGAGGCAGGUAGGUCGCAGAGGGAGGA [#03 K4 Arginine B Exclusion]
2. UAAUAUAACCGAAGGAGCGCGUGGGCGCAGUGAUGUUGCGCCCGACAUCACUUCAACUAAACGCAGGUAGGUCGCGGUAAUAAUA [Arginine B (Excl) V1]
3. UGUGUUGUUGUGAUGUUUAGUGUUGUUGGGCAGGAUAUCGUAGAGGCGAGAAGGGCUUGUGUGCUGUAUGAGUGAUGUUUGUAGG [xrrxmullin]

Outgoing:
[0.175, 0.0842, 0.262]

* * *

test system: MS2 coat protein; experiment: apparent KD of MS2 coat protein; higher = weaker reporter binding; conditions: Eterna round: R107; input ligand: tryptophan 2.4 mM
reported.endpoint: apparent KD of MS2 coat protein (nM)
Answers are plain numbers, in nM.

Recorded apparent KD of MS2 coat protein, per entry:
UCGUCCUCCGCAAGGAGGAGGAGUUGCGAUACCAGCACGGUAACGUGCCCUUGGCAGCGCACAUGAGGAUCACCCAUGUGGUGUU [#1 Exclusion - Theophylline A Attempt #13 (HarryS)] :: 188
AGCGCAUCCGUAUAGGAUGCGCUCCAUGAAGGAGCGCGGGAAACCGCAGGUAGGUCGCGUGACAUGAGGAUCACCCAUGUGUAUU [#17 Same State - Arginine A] :: 20.9

--- query ---
Incoming: Return apparent KD of MS2 coat protein (reported value) for this sequence: AUAAGUAAUGUCUCGUGUAUUAUUACAGAUACCAGACUAUCCUAUGUCCCUUGGCAGCUGGAUUACAUGAGGAUCACCCAUGUGG [#11 Exclusion-TheophyllineA]
Outgoing: 42

* * *

Kindly supply the reported apparent KD of MS2 coat protein values for the records listed here.
test system: MS2 coat protein; test: apparent KD of MS2 coat protein, switch ON state; designed switch direction (-1 OFF switch, 1 ON switch): -1; higher = weaker reporter binding; settings: FMN input: 0 or 200 uM; Eterna round: R93 (includes R88 designs)
One number for each entry, in nM.

Sample records with apparent KD of MS2 coat protein:
AGCAAGUCAGGAUAUGCGAAGUCAGGACACACACUGACGAAGCAGAAGGGACAUGAGGAUCACCCAUGUAAGCA [JR_Exclusion4_Sub6] :: 42.5
AACAGUACAGGAUAUACAUGAGGAUCACCCAUGUGAGAAUUAAGUGGCGUACCACAAAGUAGAAGGGUACUGAA [Mat - Exclusion 3 - JL mod - D6] :: 30.8
AAAAAGGGAGGAUAUACAUGAGGAUCACCCAUGUAUCAGACGAAAAAGAGUCUGGAAUGUAGAAGGCCCAAAAA [65%, Moding Exclusion3-cac2, 3] :: 14.3
AAAACACAUGAGGAUCACCCAUGUGAGGAUAUGCGAGUGAAAAUAAAAAUAAAACAUAGCAGAAGGCACAAGGA [Amethyst 80] :: 35.9
AUAGUACAUGAGGAUCACCCAUGUCAGGAUAUCGGAUAUGACAUGAAAAACAUGUUAACGAGAAGGGACUAUAA [EX1 Malc#19] :: 26.2

// batch mode: one apparent KD of MS2 coat protein value per listed entry
1. AAAACUCGAGGAUAUGCAAAAUGAUUGCGAAAGCAAUCAAAACAUGAGGAUCACCCAUGUAGAAGGCGAGAAAA [Mat - Mod of Eli]
2. CAAAGGUGAGGAUAUACAGGAAUAUGACGAAAGUCAUAAAAACAUGAGGAUCACCCAUGUAGAAGGCACCACAA [E2 64% 3]
3. AAAAAACAUGAGGAUCACCCAUGUAAGGAUAUGCGAAAUAAAAGAAAUAAAAAGGAAAGCAGAAGGUACAUGAA [JL wbt mod 8]
4. AGCAAACAUGAGGAUCACCCAUGUCAGGAUAUGAACGAAAUAAAAUAAAAAUAAAAGUUCAGAAGGGACGAGCA [Mat - Exclusion 1 - Eli mod - D24]

Outgoing:
23.5
37.4
27.2
32.3

Okay, here is my list. What is apparent KD of MS2 coat protein for each of these?
1. AAAAAACAUGAGGAUCACCCAUGUAAGGAUAUCGGAAAAGGAAAAAAAAAAAAUAAGACGAGAAGGUACACCAA [Mat - Exclusion 1 - Eli mod - D79]
2. AAAAAACAUGAGGAUCACCCAUGUAAGGAUAUGCAAGAAAGAAGAAAGAAAAGAAAAAGCAGAAGGUACAAAAA [Amethyst 71]
3. AAUAACAGAGGAUAUACUAAAGAAAUGAAAAGAAAUAAAGAACAUGAGGAUCACCCAUGUAGAAGGCUGAAUAA [Sheneh]
4. AAAGGGUCAGGAUAUGUACGAACAACAAAACAAAUAACGAUACAGAAGGGACAUGAGGAUCACCCAUGUAUAAA [May 74]

Outgoing:
1: 23.3; 2: 32.1; 3: 16.9; 4: 55.8

Incoming: // fetch apparent KD of MS2 coat protein for AACAGUACAGGAUAUACAUGAGGAUCACCCAUGUGAAAAUUAAGUGGGAGACCACAAGGUAGAAGGGUACUGGA [Mat - Exclusion 3 - Eli mod - D65] ; system: MS2 coat protein
Outgoing: 176

* * *

system: MS2 coat protein; assay: apparent KD of MS2 coat protein; designed switch direction (-1 OFF switch, 1 ON switch): -1; higher = weaker reporter binding; conditions: Eterna round: R95; input ligand: none
reported.endpoint: apparent KD of MS2 coat protein

These solved cases illustrate the format of a correct answer.
GAAAAGGUAGGAUAUACGAAAAAAAAGGUUAGAAAAAAAACACAUGAGGAUCACCCAUGUAGAAGGACCAAAAG [salish99_ex2_r3_067] (puzzle: Exclusion 2) :: 17.8 nM
CGGUACUGAGGAUAUACAUGAGGAUCACCCAUGUGUUCAAGCUAGCGUACUGGCAUUAGUAGAAGGCGGUGCUG [JL-ex3-3.21 Brourd mod] (puzzle: Exclusion 3) :: 16.9 nM

Incoming: Respond only with apparent KD of MS2 coat protein recorded for AAUAAACAUGAGGAUCACCCAUGUCAGGAUAUACGAAGAAAGAAAGAAAGAAAGAAGAGUAGAAGGGAUAGGAA [Excls1-III] (puzzle: Exclusion 1)
Outgoing: 32.6 nM

* * *

test system: MS2 coat protein; test: apparent KD of MS2 coat protein; higher = weaker reporter binding; details: Eterna round: R107; input ligand: tryptophan 2.4 mM
# label = True if apparent KD of MS2 coat protein >= 30 nM else False

Below, 5 sequences whose answers are already recorded.
CGGACAUGAGGAUCACCCAUGUACACUGAAGGAGCGUCGAGAACGACAGGUAGGUCGCAGGCUAAGGAAGGUGAUGCUCAAGAAG [Exclusion Arginine A GF5] :: False
CGAUACAAAUAAAGCGUUCGUCCGCCAGAUACCAGAUUCAUUUCCAUCCCUUGGCAGCUGUCGACAUGAGGAUCACCCAUGUUUG [theeternabot_exclusion_MS2_Theo_A_41] :: False
CCGUCACAUGAGGAUCACCCAUGUGCGGAAGGAGCGGACGAAAGUCCAGGUAGGUCGCCGUAUAGCCAAUGACCAGCAGUGUCGG [XARG-A 21] :: False
AGAAUAACACAUGAGGAUCACCCAUGUGAUACCAGCUAGGAAACUAGCCCUUGGCAGCACAUAAGGUGAUCCAGCUGCCAAGAAU [(M1)-(M2)-(T1)-(T2)-(M)'-(T)'_Design1_2/19/17] :: True
UGUGACAUGAGGAUCACCCAUGUAAGGGAAGGAGCGCCGAAUAAGGCAGGUAGGUCGCCCAAGAUAGAAGAAUAAUAAGAUUGUG [Arginine A Same State; Euphoria Solution] :: False

Incoming: Please tell me: is the sequence GCGUACGAUCGGGAUACCAGACAUUGCCGUUAGGGUGAACUUGAGGAUCACCCAAGUUUUGUCCCUUGGCAGCCCGAUCGUACGC [ETB NP+V+V2 #9 Diff Apt, Same Structure] at or over 30 nM in terms of apparent KD of MS2 coat protein?
Outgoing: False

Incoming: // inclusive: apparent KD of MS2 coat protein at least 30 nM? input: AAGUGGCACGGAAGGAGCGAGUUUACCUAAAUAACAUGAGGAUCACCCAUGUAUAAUGGGACUCAGGUAGGUCGCCGUUGUCACU [Same State Arginine B GF 23]
Outgoing: True

Incoming: Quick check: does UAUCCACAUGAGGAUCACCCAUGUGAGGAAGGAGCGGUGAAUGCACCAGGUAGGUCGCCUUGCUGAGGACAGCCGGUGGAUUCGU [Exclusion - Arginine A (Freestyle 25)] have apparent KD of MS2 coat protein greater than or equal to 30 nM?
Outgoing: False

Incoming: Quick check, apparent KD of MS2 coat protein >= 30 nM? AUAAAUAUAACCGAUACCAGCCUUAUACAUGAGGAUCACCCAUGUUAUGCUUCCUUUUUUGGCCCUUGGCAGCGGAAAUGGGUAA [AstrosSSTheB#2]
Outgoing: True

Incoming: Could you tell me if the measured apparent KD of MS2 coat protein of ACAUGAGGAUCACCCAUGUAAGAUUCAGAAGGAGCGGGAAAUAACCCAGGUAGGUCGCUGAAGUUUGGUUUAUUGUGUUCGUGAA [#07 Exclusion - Arginine A] reaches 30 nM or more?
Outgoing: False

Incoming: Can GGGUAUGAUCCGGAUACCAGCGAACAUGAGGAUCACCCAUGUGACCUAAGAUAGGCUAAACGCCCUUGGCAGCCGAGAUUGCGUU [Same State Theophylline B GF7] be said to have apparent KD of MS2 coat protein at or above 30 nM?
Outgoing: True

Reference for the values: the supplement of paper PMC9170038
